- EXPERIMENT_NOTES: Selectivity ratio for human HeLa cells over human HSF cells after 24 hrs
- Format: ADME, cell-based
- MEASUREMENT_CONDITIONS: HeLa cells versus HSF cells
PARAMETER_MEASURED: selectivity ratio at 24 h
Response field accepts a number only; no unit should be typed.

>>> recorded_value("O=c1c(-c2ccco2)nnc2n1CCN2c1c(Cl)cccc1Cl")
8

Ask | Which measured selectivity ratio at 24 h value corresponds to `O=c1c(-c2ccco2)nnc2n1CCN2c1ccccc1Cl` ?
Reply | 8

* * *

- EXPERIMENT_NOTES: Cytotoxicity against human MM1S cells at 50 ug/ml after 24 hrs by BrdU incorporation assay relative to control
- Type: functional
- MEASUREMENT_CONDITIONS: MM1.S, read-out: GI
Here, each record is paired with measured inhibition of growth at 50 µg/mL data.
Give just the number in %; leave the unit off.

Please review the entries below; each comes with its answer.
>>> recorded_value("CCOC(=O)Cc1nnc2n(c1=O)CCN2c1cccc(Cl)c1")
55
>>> recorded_value("CCOC(=O)C/C(=N\\N=C1/NCCN1c1ccc(C)cc1)C(=O)OCC")
55
>>> recorded_value("CCOC(=O)Cc1nnc2n(c1=O)CCN2c1ccc(Cl)cc1")
45
>>> recorded_value("CCOC(=O)Cc1nnc2n(c1=O)CCN2c1ccccc1")
25
>>> recorded_value("CCOC(=O)Cc1nnc2n(c1=O)CCN2c1ccc(C)cc1")
50

Ask | Give its inhibition of growth at 50 µg/mL value. Item: `CCOC(=O)Cc1nnc2n(c1=O)CCN2c1ccc(Cl)c(Cl)c1`
Reply | 40

Ask | And what about the compound `CCOC(=O)C/C(=N\N=C1/NCCN1c1cccc(Cl)c1)C(=O)OCC` ?
Reply | 40

Ask | Cool, now `CCOC(=O)C/C(=N\N=C1/NCCN1c1ccc(Cl)cc1)C(=O)OCC`
Reply | 65

Ask | And `CCOC(=O)Cc1nnc2n(c1=O)CCN2c1ccccc1OC` ?
Reply | 45

Ask | Follow-up entry: `CCOC(=O)C/C(=N\N=C1/NCCN1c1ccc(Cl)c(Cl)c1)C(=O)OCC`
Reply | 70

* * *

- Test system: T47D
- EXPERIMENT_NOTES: Cytotoxicity against human T47D cells at 50 ug/ml after 72 hrs by BrdU incorporation assay relative to control
- Format: functional
- MEASUREMENT_CONDITIONS: read-out: GI
# inhibition of growth at 50 µg/mL >= 80% gives condition met, anything below gives condition not met

>>> class_label("CCOC(=O)C/C(=N\\N=C1/NCCN1c1ccc(Cl)cc1)C(=O)OCC")
"condition met"
>>> class_label("CCOC(=O)Cc1nnc2n(c1=O)CCN2c1ccc(Cl)cc1")
"condition not met"

Could you now consider this next molecule?
Ask | // inclusive: inhibition of growth at 50 µg/mL at least 80%? input: `CCOC(=O)Cc1nnc2n(c1=O)CCN2c1ccc(Cl)c(Cl)c1`
Reply | condition not met

* * *

- EXPERIMENT_NOTES: Selectivity ratio for human HeLa cells over human HSF cells after 48 hrs
- Format: ADME, cell-based
- MEASUREMENT_CONDITIONS: HeLa cells versus HSF cells
PARAMETER_MEASURED: selectivity ratio at 48 h

>>> recorded_value("O=c1c(-c2ccco2)nnc2n1CCN2c1ccccc1Cl")
4

Next item in the queue.
Ask | What measured selectivity ratio at 48 h goes with `O=c1c(-c2ccco2)nnc2n1CCN2c1c(Cl)cccc1Cl` ?
Reply | > 5

* * *

Quick reference: inhibition of growth at 50 µg/mL of the listed items.
- System: T47D
- EXPERIMENT_NOTES: Cytotoxicity against human T47D cells at 50 ug/ml after 48 hrs by BrdU incorporation assay relative to control
- Format: functional
- MEASUREMENT_CONDITIONS: read-out: GI
State just the number; it will be interpreted in %.

These solved cases illustrate the format of a correct answer.
>>> recorded_value("CCOC(=O)Cc1nnc2n(c1=O)CCN2c1ccc(Cl)cc1")
50
>>> recorded_value("CCOC(=O)Cc1nnc2n(c1=O)CCN2c1ccc(Cl)c(Cl)c1")
40

Ask | Query: inhibition of growth at 50 µg/mL; subject: `CCOC(=O)C/C(=N\N=C1/NCCN1c1ccc(C)cc1)C(=O)OCC`
Reply | 75

Ask | Another molecule to check: `CCOC(=O)Cc1nnc2n(c1=O)CCN2c1ccccc1OC`
Reply | 35

Ask | Another molecule to check: `CCOC(=O)Cc1nnc2n(c1=O)CCN2c1ccccc1`
Reply | 80

Ask | // query: `CCOC(=O)C/C(=N\N=C1/NCCN1c1ccc(Cl)cc1)C(=O)OCC`
Reply | 85

Ask | Please answer likewise for `CCOC(=O)C/C(=N\N=C1/NCCN1c1cccc(Cl)c1)C(=O)OCC`
Reply | 85

Ask | # iterate: `CCOC(=O)Cc1nnc2n(c1=O)CCN2c1ccc(C)cc1`
Reply | 75

Ask | Please answer likewise for `CCOC(=O)Cc1nnc2n(c1=O)CCN2c1cccc(Cl)c1`
Reply | 55

Ask | Another molecule: `CCOC(=O)C/C(=N\N=C1/NCCN1c1ccc(Cl)c(Cl)c1)C(=O)OCC`
Reply | 95

* * *

- EXPERIMENT_NOTES: Selectivity ratio for human T47D cells over human HSF cells after 72 hrs
- Format: ADME, cell-based
- MEASUREMENT_CONDITIONS: T47D cells versus HSF cells
PARAMETER_MEASURED: selectivity ratio at 72 h
Form: value (number only, do not type unit).

Ask | What value of selectivity ratio at 72 h has been recorded for this entry: `COc1ccccc1N1CCn2c1nnc(-c1ccco1)c2=O`
Reply | 14

* * *

Below, each of the compounds is paired with its reported inhibition at 24 h, 50 ug/ml value.
- EXPERIMENT_NOTES: Cytotoxicity against human HSF cells at 50 ug/ml after 24 hrs by BrdU incorporation assay relative to control
- Type: cell-based
- MEASUREMENT_CONDITIONS: read-out: GI
Include the unit right after the number.

>>> recorded_value("CCOC(=O)Cc1nnc2n(c1=O)CCN2c1ccc(C)cc1")
"50%"
>>> recorded_value("CCOC(=O)Cc1nnc2n(c1=O)CCN2c1ccccc1OC")
"50%"
>>> recorded_value("CCOC(=O)C/C(=N\\N=C1/NCCN1c1ccc(Cl)c(Cl)c1)C(=O)OCC")
"70%"
>>> recorded_value("CCOC(=O)Cc1nnc2n(c1=O)CCN2c1cccc(Cl)c1")
"10%"
>>> recorded_value("CCOC(=O)Cc1nnc2n(c1=O)CCN2c1ccc(Cl)c(Cl)c1")
"50%"
>>> recorded_value("CCOC(=O)C/C(=N\\N=C1/NCCN1c1cccc(Cl)c1)C(=O)OCC")
"70%"
>>> recorded_value("CCOC(=O)Cc1nnc2n(c1=O)CCN2c1ccccc1")
"25%"
>>> recorded_value("CCOC(=O)Cc1nnc2n(c1=O)CCN2c1ccc(Cl)cc1")
"50%"
>>> recorded_value("CCOC(=O)C/C(=N\\N=C1/NCCN1c1ccc(C)cc1)C(=O)OCC")
"70%"

Please find the next compound below.
Ask | Recorded inhibition at 24 h, 50 ug/ml for `CCOC(=O)C/C(=N\N=C1/NCCN1c1ccc(Cl)cc1)C(=O)OCC` , please?
Reply | 70%

* * *

- EXPERIMENT_NOTES: Cytotoxicity against human MM1R cells at 50 ug/ml after 72 hrs by BrdU incorporation assay relative to control
- Type: functional
- MEASUREMENT_CONDITIONS: MM.1R, read-out: GI
Overview of recorded inhibition of growth at 50 µg/mL for various compounds
Give just the number in %; leave the unit off.

As a guide, the following entries are already answered.
>>> recorded_value("CCOC(=O)Cc1nnc2n(c1=O)CCN2c1ccccc1OC")
95
>>> recorded_value("CCOC(=O)C/C(=N\\N=C1/NCCN1c1ccc(Cl)cc1)C(=O)OCC")
90
>>> recorded_value("CCOC(=O)Cc1nnc2n(c1=O)CCN2c1cccc(Cl)c1")
90
>>> recorded_value("CCOC(=O)Cc1nnc2n(c1=O)CCN2c1ccc(Cl)c(Cl)c1")
90
>>> recorded_value("CCOC(=O)Cc1nnc2n(c1=O)CCN2c1ccc(Cl)cc1")
90
>>> recorded_value("CCOC(=O)Cc1nnc2n(c1=O)CCN2c1ccccc1")
90
>>> recorded_value("CCOC(=O)C/C(=N\\N=C1/NCCN1c1ccc(C)cc1)C(=O)OCC")
95
>>> recorded_value("CCOC(=O)C/C(=N\\N=C1/NCCN1c1cccc(Cl)c1)C(=O)OCC")
80

Ask | // query inhibition of growth at 50 µg/mL value for entry `CCOC(=O)C/C(=N\N=C1/NCCN1c1ccc(Cl)c(Cl)c1)C(=O)OCC`
Reply | 80

Ask | Okay, and `CCOC(=O)Cc1nnc2n(c1=O)CCN2c1ccc(C)cc1` ?
Reply | 75
